Source listed as patent US20210355194A1.

molecular target: SARS-COV2-S1 RBD (mouse IgG2Fc tag) (SARS-CoV-2, UniProt P0DTC2 319-537); experiment: column not explained; likely FACS, S1 RBD on Vero E6
metric.name: MFI Fold Decrease (fold)

binder="variant 6-26 (Fc fusion) VHH: EVQLVESGGGLVQPGGSLRLSCAASGDTFSTSWMGWFRQAPGKEREFVATINTGGGTNYADSVKGRFTISADNSKNTAYLQMNSLKPEDTAVYYCARVTTSFDYWGQGTLVTVSS" recorded_number=6.41
binder="variant 6-20 (Fc fusion) VHH: EVQLVESGGGLVQPGGSLRLSCAASGSTLPYHAMGWFRQAPGKEREFVAAITWNGASTSYADSVKGRFTISADNSKNTAYLQMNSLKPEDTAVYYCARDRYYDTSASYFESETWGQGTLVTVSS" recorded_number=9.95
binder="variant 6-60 (Fc fusion) VHH: EVQLVESGGGLVQPGGSLRLSCAASGDTYGSYWMGWFRQAPGKEREFVATISQSGAATAYADSVKGRFTISADNSKNTAYLQMNSLKPEDTAVYYCAGLLRYSGTYYDAFDVWGQGTLVTVSS" recorded_number=12.6
binder="variant 5-37 (Fc fusion) VHH: EVQLVESGGGLVQPGGSLRLSCAASGSTFSINAMGWFRQAPGKEREFVGGISRSGATTNYADSVKGRFTISADNSKNTAYLQMNSLKPEDTAVYYCAADGVPEYSDYASGPVWGQGTLVTVSS" recorded_number=8.19
binder="variant 6-55 (Fc fusion) VHH: EVQLVESGGGLVQPGGSLRLSCAASGFTMSSSWMGWFRQAPGKEREFVARITSGGSTGYADSVKGRFTISADNSKNTAYLQMNSLKPEDTAVYYCASVDGYFDYWGQGTLVTVSS" recorded_number=7.98
